tested on: MCF7; experiment: Cytotoxicity against human MCF7 cells assessed as inhibition of metabolic activity after 24 hrs by MTT assay; format: functional, cell-based; details: MCF7, 24 h

Substance smiles: CCOP(=O)(OCC)c1c(-c2ccccc2Cl)oc2c1C(=O)c1ccccc1C2=O
IC50 [µM]: 3.4

====

// reported selectivity ratio for each item listed
assay: Selectivity index, ratio of IC50 for human MCF10A cells to IC50 for human MCF7 cells; assay type: toxicity; conditions: MCF10A cells versus MCF7 cells, read-out: Ratio IC50

Substance smiles: CCOP(=O)(OCC)c1c(-c2cc(F)c(Cl)nc2Cl)oc2c1C(=O)c1ccccc1C2=O
selectivity ratio: 4

Substance smiles: CCOP(=O)(OCC)c1c(-c2ccc(Cl)cc2Cl)oc2c1C(=O)c1ccccc1C2=O
selectivity ratio: 4

Substance smiles: CCOP(=O)(OCC)c1c(-c2ccccc2Cl)oc2c1C(=O)c1ccccc1C2=O
selectivity ratio: 4

====

system: NALM-6; assay: Cytotoxicity against human NALM6 cells assessed as inhibition of metabolic activity after 48 hrs by MTT assay; format: functional, cell-based; details: NALM-6, 48 h
pIC50: −log10 of the molar value.
Assay metric: pIC50

Substance smiles: CCOP(=O)(OCC)c1c2c(n(C)c1O)C(=O)c1ccccc1C2=O
Experimental result: 4.21

Substance smiles: CCCCCCn1c(O)c(P(=O)(OCC)OCC)c2c1C(=O)c1ccccc1C2=O
Experimental result: 4.35

Substance smiles: CCOP(=O)(OCC)c1c(-c2ccc(Cl)cc2Cl)oc2c1C(=O)c1ccccc1C2=O
Experimental result: 5.32

Substance smiles: CCOP(=O)(O)c1c(-c2ccccc2Cl)oc2c1C(=O)c1ccccc1C2=O
Experimental result: 3.32

Substance smiles: CCOP(=O)(OCC)c1c2c(n(C3CC3)c1O)C(=O)c1ccccc1C2=O
Experimental result: 4.29

Substance smiles: CCOP(=O)(OCC)c1c(-c2cc(F)c(Cl)nc2Cl)oc2c1C(=O)c1ccccc1C2=O
Experimental result: 5.27

Substance smiles: CCCn1c(O)c(P(=O)(OCC)OCC)c2c1C(=O)c1ccccc1C2=O
Experimental result: 4.22

Substance smiles: CCOP(=O)(OCC)c1c2c(n(Cc3ccccc3Cl)c1O)C(=O)c1ccccc1C2=O
Experimental result: 4.22

Substance smiles: CCOP(=O)(OCC)c1c(C)oc2c1C(=O)c1ccccc1C2=O
Experimental result: 5.23

Substance smiles: CCOP(=O)(OCC)c1c(-c2ccccc2)oc2c1C(=O)c1ccccc1C2=O
Experimental result: 5.22

Substance smiles: CCOP(=O)(OCC)c1c(-c2cccnc2Cl)oc2c1C(=O)c1ccccc1C2=O
Experimental result: 5.18

Substance smiles: CCOP(=O)(OCC)c1c(-c2ccccc2Cl)oc2c1C(=O)c1ccccc1C2=O
Experimental result: 5.29
